test: qHTS Validation assay for Inhibitors of Plasmodium falciparum Dd2 growth in vitro; also: nearly all actives have a fitted effect of over 70% in size; details: P. falciparum Dd2 in RBCs, SYBR Green growth, 72 h; series mostly up to 28.7 µM
In all, about 4,100 compounds went through this assay and about 1,600 (39%) were called active. About 25% were inconclusive and are not listed. Calls follow the shape of the dose curve; as a rule, active = well fitted inhibition curve with a large enough effect; inconclusive = small, poorly fitted or top-dose-only effect; inactive = no such curve, though single readings can be large or run the other way. The list shows a part of the results.
Outcomes: TRUE (active), FALSE (inactive)

compound=CCc1noc(-c2nc(-c3ccc(OC)c(OC)c3)no2)n1 assignedcategory=FALSE
compound=O=c1oc2c(CN3CCOCC3)c(O)ccc2cc1-c1ccccc1 assignedcategory=TRUE
compound="COc1ccc(C(O)(CCC(C)C)C(CN2CCOCC2)c2ccccc2)cc1 (centres undefined)" assignedcategory=TRUE
compound=Cn1cc(-c2ccccc2Oc2ccccc2)c2nc(CN3CCOCC3)cn2c1=O assignedcategory=FALSE

###

Assay: qHTS Validation assay for Inhibitors of Plasmodium falciparum Dd2 growth in vitro; also: nearly all actives have a fitted effect of over 70% in size
Details: P. falciparum Dd2 in RBCs, SYBR Green growth, 72 h; series mostly up to 28.7 µM
Excerpt: Malaria, a parasitic disease spread to humans through the bite of a Plasmodium infected Anopheles mosquito, continues to be a global health burden affecting millions of people, with an estimated 228 million cases and 405,000 deaths in 2018. Concerns about safety and limitations of current antimalarial treatments strongly emphasize the need to develop new therapeutic options. […]
About 1,600 (39%) of roughly 4,100 compounds were called active. Not shown: some 25% with an inconclusive outcome. Calls come from the whole dose curve; as a rule, active = well fitted inhibition curve with a large enough effect; inconclusive = small, poorly fitted or top-dose-only effect; inactive = no such curve, though single readings can be large or run the other way. The list shows a part of the results.
Outcomes: y = active, n = inactive

compound=O=c1cc(-c2ccccc2)c2ccc3c(c2o1)CN(Cc1ccccc1)CO3 assignedcategory=y
compound=C=C(C)COc1ccc(-c2[nH]ncc2-c2ccc(OC)c(OC)c2)c(O)c1 assignedcategory=y
compound=COc1ccccc1CN1COc2ccc3c(oc(=O)c4ccccc43)c2C1 assignedcategory=y
compound=CCCc1noc(-c2ccn3c(CNC(=O)c4ccc5ccccc5n4)nnc3c2)n1 assignedcategory=n
compound="COc1cc(O)c(C(CCN2CCCC(C)C2)c2cc(OC)c(OC)c(OC)c2)c(OC)c1 (centres undefined)" assignedcategory=y
compound=CCc1c(C)c2ccc(O)c(CN3CCN(c4ccccc4)CC3)c2oc1=O assignedcategory=y
compound="CC1C(=O)C(C)C(c2cc(Cl)ccc2O)NC1c1cc(Cl)ccc1O (centres undefined)" assignedcategory=y
compound=CC(C)(C)c1ccc(C(=O)Nc2ccc(-c3nc4cc(Cl)ccc4o3)cc2)cc1 assignedcategory=n
compound="COc1cc(O)c(C(CCN2CCCCC2)c2ccc(N(C)C)cc2)c(OC)c1 (centres undefined)" assignedcategory=y

###

test: qHTS Validation assay for Inhibitors of Plasmodium falciparum Dd2 growth in vitro; also: nearly all actives have a fitted effect of over 70% in size; also: potency is read from the fitted curve at half-maximal effect; settings: P. falciparum Dd2 in RBCs, SYBR Green growth, 72 h; series mostly up to 28.7 µM
Screen size: about 4,100 compounds; about 1,600 (39%) were called active. Roughly 25% stayed inconclusive and do not appear here. This is one part of the list.
experimentalEndpoint: Potency

compound=CN(C)C[C@@H]1CN(C)C[C@H]1NS(=O)(=O)c1ccc(Br)cc1 experimentalendpoint=Potency valuemeasured="13.3 µM (active)"
compound=CCOc1ccc(CC(=O)N[C@@H]2CN(c3ncccn3)C[C@H]2CN(C)C)cc1 experimentalendpoint=Potency valuemeasured=inactive
compound=COc1ccccc1NC(=O)c1nn(C)c2c1CS(=O)(=O)c1ccccc1-2 experimentalendpoint=Potency valuemeasured=inactive
compound="CN(C)C(=O)N1CCCC(C(=O)NCc2nc(C3CCCCC3)no2)C1 (stereo not drawn)" experimentalendpoint=Potency valuemeasured=inactive
compound=COc1ccc(C(=O)NCCn2ccn3nc(-c4cc(C)ccc4C)cc3c2=O)cc1OC experimentalendpoint=Potency valuemeasured=inactive
compound=CC(C)NC(=O)CSc1nnc(CNC(=O)OC(C)(C)C)n1C experimentalendpoint=Potency valuemeasured=inactive
compound="CC(C)(C)c1ccc(CN(Cc2ccccc2)C(c2ccccn2)c2nnnn2C(C)(C)C)cc1 (stereo not drawn)" experimentalendpoint=Potency valuemeasured="4.73 µM (active)"
compound=Cc1ccc(S(=O)(=O)N[C@@H]2CN(C)C[C@H]2CN(C)C)cc1F experimentalendpoint=Potency valuemeasured="15 µM (active)"
compound=O=C(NCc1ccc(C(F)(F)F)cc1F)[C@H]1CCC[C@@H](O)C1 experimentalendpoint=Potency valuemeasured=inactive
compound=CCOc1ccc(-c2cc3c(=O)n(CCNC(=O)c4ccccc4OC)ccn3n2)cc1 experimentalendpoint=Potency valuemeasured=inactive
compound=Fc1cccc(NC(=S)NNc2c3ccccc3nc3ccccc23)c1 experimentalendpoint=Potency valuemeasured="15 µM (active)"
compound="CCC(C)NC(=O)c1cc2c(Cl)nc3ccc(C)cc3c2s1 (stereo not drawn)" experimentalendpoint=Potency valuemeasured=inactive
compound=COc1ccc(-n2nc(C(=O)NCCc3ccc(OC)c(OC)c3)c3c4ccccc4n(C)c3c2=O)cc1Cl experimentalendpoint=Potency valuemeasured="2.99 µM (active)"
